tested on: HL-1; experiment: relative cell viability (CellTiter-Glo) vs DMSO control (% of DMSO control); higher = more viable cells; details: oxygen condition: hypoxia 48 h (1% O2) + reoxygenation 24 h; 40 nM
Counter-ions that a name gives are not always drawn.
Under this convention, fulfilled denotes relative cell viability strictly below 100 and not fulfilled denotes relative cell viability at or above 100.

Cc1cn([C@H]2C[C@H](N=[N+]=[N-])[C@@H](CO)O2)c(=O)[nH]c1=O ... not fulfilled
CCCNC(C)C(=O)Nc1c(C)csc1C(=O)OC (centres undefined) [Articaine HCl] ... not fulfilled
Cc1c(O)c(=O)ccn1C ... not fulfilled
O=C(O)c1ccc(NC(=O)[C@H](Cc2ccc(O)cc2)NC(=O)c2ccccc2)cc1 [Bentiromide] ... not fulfilled
Nc1nc(F)nc2c1ncn2[C@@H]1O[C@H](COP(=O)(O)O)[C@@H](O)[C@@H]1O [Fludarabine Phosphate] ... not fulfilled
NS(=O)(=O)c1cc(C(=O)O)c(NCc2ccco2)cc1Cl [Furosemide] ... not fulfilled
O=C1[C@H](CC[C@H](O)c2ccc(F)cc2)[C@@H](c2ccc(O)cc2)N1c1ccc(F)cc1 ... not fulfilled
CC(C[N+](C)(C)C)OC(N)=O (centres undefined) [Bethanechol chloride] ... fulfilled
CCOC(=O)C1=C(C)NC(C)=C(C(=O)OCC)C1c1ccccc1/C=C/C(=O)OC(C)(C)C ... not fulfilled
C[C@H](Cc1cc2c(c(C(N)=O)c1)N(CCCO)CC2)NCCOc1ccccc1OCC(F)(F)F ... not fulfilled

Regarding Cc1onc(-c2ccccc2Cl)c1C(=O)N[C@@H]1C(=O)N2[C@@H]1SC(C)(C)[C@@H]2C(=O)O [Cloxacillin sodium] , kindly confirm whether its relative cell viability is beneath 100. fulfilled

Regarding OC(CNCC(O)C1CCc2cc(F)ccc2O1)C1CCc2cc(F)ccc2O1 (centres undefined) , kindly confirm whether its relative cell viability is beneath 100. not fulfilled
